System: Trypanosoma cruzi
testSummary: Trypanosoma cruzi phosphomannomutase and mannose-1-phosphate guanylyltransferase assay
Type: functional
Parameters: scale not given: direction of the effect not stated beside the values
conditionContext: 10 µM
Could you please report measured Percent Effect for the items listed next?
Answers are plain numbers, in %.

compound: Cc1nn(C)c(Cl)c1C1CCCN1C(=O)c1cc(Cl)c[nH]1 (stereo not drawn)
Percent Effect [%]: -1.79

compound: O=C(COc1cccc2c1CCC2=O)NCCOc1ccccc1
Percent Effect [%]: -6.33

compound: CCc1ccc(NS(=O)(=O)CC2=NC(=O)n3cccc3C2=O)cc1
Percent Effect [%]: -0.786

compound: CO[C@H]1CO[C@@]2(CCCN(C(=O)C3=CCCCC3)C2)C1
Percent Effect [%]: 1.35

compound: COCCN(C)CCN1CC2(CCN(C(=O)C3CCOC3)CC2)OC1=O (stereo not drawn)
Percent Effect [%]: 5.21

compound: COc1cc(C)nc(N2CCN(C(=O)c3ccc(Cl)o3)CC2)n1
Percent Effect [%]: 2.17

Batch: Percent Effect for all items listed.
1. Cc1ccc(CC(=O)N2CCCC(c3nc(C)cs3)C2)cn1 (stereo not drawn)
2. CCc1ncnc2c1CCN(C(=O)N1CCCC1)CC2
3. CN(C)c1ccc(CCCNC(=O)Nc2ccc(C#N)cc2)cc1
4. COc1c(CNC2CCCc3ccccc32)c(C(C)C)nn1C (stereo not drawn)
5. O=c1cc2c(nn1CN1CCN(c3cccc(Cl)c3)CC1)CCC2
6. CCOc1ccnc(N2CCN(C(=O)c3cccnc3O)CC2)n1
7. CC(C)n1ccc(-c2cc(C(=O)N3CCCC3)c3ccccn23)n1

[reply]
1: -0.0929; 2: -2.7; 3: 3.86; 4: 7.71; 5: 0.589; 6: 0.283; 7: -4.79

Batch: Percent Effect for all items listed.
1. CCn1cnnc1C1CCN(C(=O)c2cnc3ccccc3n2)CC1
2. COC(=O)c1ccoc1COC(=O)CCc1ccc(OC)c(OC)c1
3. CNc1nc2c(c(C(=O)N3CCCC3)n1)CN(Cc1nccn1C)CC2
4. O=C1NCCN1C1CCCN(Cc2coc(-c3ccc(F)cc3)n2)C1 (stereo not drawn)

[reply]
[5.75, -3.99, 2.38, 10.9]

Batch: Percent Effect for all items listed.
1. Cc1noc(C(C)N2CCN(CCCN3CCCC3=O)CC2)n1 (stereo not drawn)
2. O=C(COc1coc(CN2CCOCC2)cc1=O)c1ccc(Cl)cc1

[reply]
[1.23, -2.04]

Batch: Percent Effect for all items listed.
1. Cn1nc(C2CN(C(=O)c3cscn3)C2)c2nccnc21
2. O=C(c1cn(-c2cc(N3CCOCC3)ncn2)cn1)N1CCSCC1
3. Cn1ncc2c1C(COCC1CC1)CN(Cc1ccoc1)C2 (stereo not drawn)
4. O=C1CO[C@@H]2CN(S(=O)(=O)c3ccccc3)C[C@H]2N1CC1CC1
5. CCc1cc(NCc2ccccc2CN2CCCC2)n2ncnc2n1

[reply]
1: 1.38; 2: 1.18; 3: 2.83; 4: -3.28; 5: -4.38

Batch: Percent Effect for all items listed.
1. NCc1cnn(-c2ccccc2C(=O)NCc2ccncc2)c1
2. Cc1nc(C)n(CC2CN(c3ncnc4[nH]ccc34)CCO2)n1 (stereo not drawn)
3. COc1ccccc1Oc1ncccc1CNC(=O)C(C)N1CCCC1 (stereo not drawn)
4. COc1cccc(C(=O)NCC(O)c2cccs2)c1 (stereo not drawn)
5. N#Cc1cccc(C(=O)N2CCc3ncc(Cn4cccn4)n3CC2)c1
6. CC(=O)c1cn(CCC(=O)NCCC(=O)O)c2ccccc12

[reply]
-2.96
-3.38
3.4
6.46
-1.74
-3.14

Batch: Percent Effect for all items listed.
1. CC(C)NC(=O)c1sccc1N(C)S(=O)(=O)c1ccc(Cl)cc1
2. CCc1nccn1C1CCCN(C(=O)CCCNc2ncccn2)C1 (stereo not drawn)
3. CN(C)CC(=O)N1CCOC2(CCCN(c3ncccc3F)C2)C1 (stereo not drawn)
4. O=C(NCCN1CCNCC1)c1c(O)c2ccccc2[nH]c1=O
5. COc1ccc(NC(=O)N2CCN(c3ncccn3)CC2)cn1
6. COc1cc(CNCCc2nc(C)cs2)cc2c1OCCO2
7. CCN1CCC(CNCc2cc(OC)ccc2OC)C1 (stereo not drawn)

[reply]
1: -7.5; 2: -2.77; 3: 0; 4: -9.23; 5: -3.53; 6: -1.13; 7: -5.66

Batch: Percent Effect for all items listed.
1. O=C(NC1CC1)c1ccc2ccc(N3CCN(CC4CC4)CC3)n2c1
2. O=C(c1ccc(F)c(F)c1)N1CCCC1CN1CCCC1 (stereo not drawn)
3. CC(C)n1ncc2c1NC(=O)CC21C(=O)Nc2c(Cl)cccc21 (stereo not drawn)
4. CCN(CC)c1ccc(C(=O)N(C)Cc2c(C)noc2C)cn1

[reply]
1. 7.69
2. -3.02
3. -0.393
4. -7

Batch: Percent Effect for all items listed.
1. CC(=O)N1CCN(Cc2csc(-c3cnn(C)c3)n2)CC1
2. Cc1nccc(CN2CCC(c3nnsc3S(C)(=O)=O)CC2)n1
3. O=C(NCc1ccccc1CN1CCC(O)CC1)Nc1cccnc1
4. CCc1nnc2n1CC(CNCc1ccncc1)CC2 (stereo not drawn)

[reply]
9.21
-3.75
0.193
-3.6
